# System: Tetranychus urticae
# assay.comment: Acaricidal activity against Tetranychus urticae (two-spotted spider mite) assessed as mortality at 500 ppm
# Type: functional
# experimental.context: Tetranychus urticae
Each entry below carries its reported mortality at 500 ppm.
Field: numeric (%). Do not append units.

response.value for CN(C)C(CSC(N)=O)CSC(N)=O.Cl [CARTAP HYDROCHLORIDE] (field: mortality at 500 ppm) = 37

response.value for `CN(C)CC(CSC(N)=O)CSC(N)=O.Cl.O` (field: mortality at 500 ppm) = 80

response.value for `CN(C)C[C@@H]1CCSC(C(=O)c2ccccc2)(C(=O)c2ccccc2)S1.O.O=C(O)C(=O)O` (field: mortality at 500 ppm) = 100

response.value for CCC(=O)SCCC(CN(C)C)SC(=O)CC.O=C(O)C(=O)O (stereo unspecified) (field: mortality at 500 ppm) = 80

response.value for `CN(C)CC1CSSSC1.O=C(O)C(=O)O` (field: mortality at 500 ppm) = 100

response.value for `CCOC(=O)CSCC(CSCC(=O)OCC)CN(C)C.O=C(O)C(=O)O` (field: mortality at 500 ppm) = 80

response.value for CN(C)CC(CCSS(=O)(=O)c1ccccc1)SS(=O)(=O)c1ccccc1 (stereo unspecified) (field: mortality at 500 ppm) = 100

response.value for `CC(=O)SCC(CSC(C)=O)CN(C)C.O=C(O)C(=O)O` (field: mortality at 500 ppm) = 100

response.value for `CN(C)CC(CSC(=O)N(C)C)CSC(=O)N(C)C.O=C(O)C(=O)O` (field: mortality at 500 ppm) = 100

response.value for CN(C)C1CSSSC1.O=C(O)C(=O)O [THIOCYCLAM HYDROGEN OXALATE] (field: mortality at 500 ppm) = 80

response.value for `CCN(CC)C(=O)[C@]1(C#N)SC[C@@H](CN(C)C)CS1.O=C(O)C(=O)O` (field: mortality at 500 ppm) = 100

----------
# Tested on: Tetranychus urticae
# assay.comment: Acaricidal activity against Tetranychus urticae (two-spotted spider mite) assessed as mortality at 500 ppm
# Type: functional
# experimental.context: Tetranychus urticae
measurement.type: mortality at 500 ppm

response.value for `CC(C)NC(=S)SCC(CSC(=S)NC(C)C)CN(C)C` (field: mortality at 500 ppm) = 80%

response.value for `CN(C)CC(CSS(=O)(=O)c1ccccc1)CSS(=O)(=O)c1ccccc1.O=C(O)C(=O)O` (field: mortality at 500 ppm) = 100%

response.value for CN(C)CC(S)CCS.O=C(O)C(=O)O (stereo unspecified) (field: mortality at 500 ppm) = 100%

response.value for `CN(C)CC(CS)CS.O=C(O)C(=O)O` (field: mortality at 500 ppm) = 100%

response.value for `CCOC(=O)[C@H]1SC[C@H](CN(C)C)CS1.O=C(O)C(=O)O` (field: mortality at 500 ppm) = 100%

response.value for CN(C)C[C@@H]1CCSC(C#N)(c2ccc(Cl)cc2)S1.O=C(O)C(=O)O (mixture of isomers) (field: mortality at 500 ppm) = 100%

response.value for CN(C)CC1CCS[S+]1[O-].O=C(O)C(=O)O (stereo unspecified) (field: mortality at 500 ppm) = 100%

response.value for CNC(=O)SCCC(CN(C)C)SC(=O)NC (stereo unspecified) (field: mortality at 500 ppm) = 30%

response.value for `CCOP(=O)(OCC)[C@]1(C#N)SC[C@H](CN(C)C)CS1.O=C(O)C(=O)O` (field: mortality at 500 ppm) = 100%

response.value for CN(C)CC1CCSS1.O=C(O)C(=O)O (stereo unspecified) (field: mortality at 500 ppm) = 100%

Let's switch to this molecule now.
response.value for `CN(C)CC(CSC(=O)c1ccccc1)CSC(=O)c1ccccc1` (field: mortality at 500 ppm) = 100%
